// each record: one item and its IC50 for Factor D (Homo sapiens (Human), UniProt P00746)

                                   molecule  assay_result
0  NCc1cccc(-c2cc(COc3ccccc3CC(=O)O)cc3c2CCC3)c1 [Compound 177f]     < 1000 nM
1  C[C@@H](N)c1cccc(-c2nc(C(=O)Nc3ccccc3CC(=O)O)c3cccn3n2)c1F [Compound 33f]     < 1000 nM
2  NCc1cccc(-c2nc(C(=O)Nc3ccccc3CC(=O)O)c3ccccc3n2)c1 [Compound 64f]     < 1000 nM

Need IC50 of COCc1cc2cc(COc3cc(C)ccc3CC(=O)O)cc(-c3ccnc(CN)c3F)c2o1 [Compound 453d] , thanks. < 1000 nM

Given the entry NCc1nccc(-c2cc(COc3ccccc3CC(=O)O)cc3sc(Cl)cc23)c1F [Compound 338c] , report its measured IC50. < 1000 nM

----------
For Factor D (Homo sapiens (Human), UniProt P00746), measured IC50 is reported for the entries below.

Sample answers from the record:
                                   compound                               measured_on  endpoint      assay_result
0  N[C@H](c1cc(-c2cc(COc3ccccc3CC(=O)O)cc3ccoc23)ccn1)C(F)(F)F [Compound 380e]  Factor D (Homo sapiens (Human), UniProt P00746)      IC50        > 10000 nM
1  NCc1ccccc1-c1cc(COc2ccccc2CC(=O)O)cc2ccoc12 [Compound 243d]  Factor D (Homo sapiens (Human), UniProt P00746)      IC50        > 10000 nM
2  Cc1ccc(CC(=O)O)c(NC(=O)c2nc(-c3cc(F)cc(CN)c3)nn3cccc23)c1 [Compound 63c]  Factor D (Homo sapiens (Human), UniProt P00746)      IC50         < 1000 nM
3  Nc1ccc(-c2cc(COc3ccccc3CC(=O)O)cc3ccoc23)cc1 [Compound 183c]  Factor D (Homo sapiens (Human), UniProt P00746)      IC50        > 10000 nM
4  Cn1ccc2c(-c3cccc(CN)c3)cc(COc3ccccc3CC(=O)O)cc21 [Compound 50e]  Factor D (Homo sapiens (Human), UniProt P00746)      IC50         < 1000 nM
5  Cc1ccc(CC(=O)O)c(OCc2cc(-c3ccnc(CN)c3F)c3occ(C(F)(F)F)c3c2)c1 [Compound 343e]  Factor D (Homo sapiens (Human), UniProt P00746)      IC50         < 1000 nM
6  NCc1cccc(-c2cc(COc3c(CC(=O)O)ccc4ccoc34)cc3ccoc23)c1 [Compound 392g]  Factor D (Homo sapiens (Human), UniProt P00746)      IC50         < 1000 nM
7  NCc1ccc(-c2cc(COc3ccccc3CC(=O)O)cc3ccoc23)cc1 [Compound 193c]  Factor D (Homo sapiens (Human), UniProt P00746)      IC50  1000 to 10000 nM

API: value(readout= IC50, system= Factor D (Homo sapiens (Human), UniProt P00746), query= NCc1cccc(-c2cc(COc3ccccc3CC(=O)O)cc3c2ccn3S(=O)(=O)C2CC2)c1F [Compound 213b] ) < 1000 nM

Give Factor D (Homo sapiens (Human), UniProt P00746) IC50 for NCc1cccc(-c2cc(COc3ccccc3C(=O)O)cc3ccoc23)c1 [Compound 293c] < 1000 nM

Reported IC50 for Factor D (Homo sapiens (Human), UniProt P00746), given CCN(CC)c1ccc(CC(=O)O)c(OCc2cc(-c3cccc(CN)c3)c3occc3c2)c1 [Compound 306f] ? < 1000 nM

Requested read-out IC50, target or system Factor D (Homo sapiens (Human), UniProt P00746), entry NCc1cccc(-c2cc(COc3ccccc3CC(=O)O)cc3cc(CN)oc23)c1 [Compound 406e] < 1000 nM

Form field: IC50 recorded for NCc1nccc(-c2cc(COc3ccc(F)cc3CC(=O)O)cc3ccoc23)c1F [Compound 90d] with Factor D (Homo sapiens (Human), UniProt P00746) (enter value) < 1000 nM
